B1: HDV Ribozyme (parent)
chain: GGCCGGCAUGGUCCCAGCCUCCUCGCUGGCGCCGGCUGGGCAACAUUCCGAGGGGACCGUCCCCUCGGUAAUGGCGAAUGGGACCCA

Variants of: B1
testName: self-cleavage, relative activity (ratio to wild type); higher = more cleavage; co-transcriptional
valueType: self-cleavage

mutantid="G25C G67A" valuetype=self-cleavage measured=0.123

Each of the following entries comes with a recorded value; kindly state self-cleavage for each.
1. C19A G55A
2. C48A C49G
3. A43G U72G

1. 0.0906
2. 1.01
3. 0.554
